Assay: yeast display, Sf9 membrane polyspecificity reagent, FACS + sequencing; frameworks hold sequencing errors
endpoint: polyreactivity (PSR sort gate)

QVQLVESGGGLVQAGGSLRLSCAASGRIFRYYDMGWYRPAPGTERELVAAITSDGSTKYADSVKGRFTISRDNAKNTVYLQMNSLKPEDTAVYYCNAEVLPTWYSPQLDYWGQGTQVTVSS = low polyreactivity
QVQLVESGGGFVQAGGSLRLSCAASGRIFLTNAMGWYRQAPGKERELVAAITSGGSTYYADSVKGRFTISRDNAKNTVYLQMNSLKPEDPAVYYCNADTDRYSPYEYDFWGQGTQVTVSS = low polyreactivity
QVQLVESGGGLVQAGGSLRLSCDASGSIFYDYAMGWYRQAPGKERELVAAITSDTTTNYADSVKGRFTISRDNAKNTVYLQMNSLKPEDTAVYYCNTPPQWLGRYITLTFDYWGQGTQVTVSS = low polyreactivity

----------
Experiment: yeast display, Sf9 membrane polyspecificity reagent, FACS + sequencing; frameworks hold sequencing errors
endpoint: polyreactivity (PSR sort gate)

Use these answered entries as a reference point.
QVQLVESGGGLVQAGGSLRLSCPASGFIINVYVMGWYRQAPGKERELVAAISGGGSTYYADSVKGRFTISRDNAKNTVSLQMNSLKPEDTAVYYCAAVYYYQNEGYDFWGQGTQVTVSS = low polyreactivity
QVQLVESGGGLVQAGGSLRLSCAASGRIFPYYAMGWYRQAPGKERELVATIRGRVGTTYYADSVKGRFTISRDNAKNSVYLEMNSLKPEDTAVYYCNTDNYSPYRYVGLYDYWGQGTQVTVSS = high polyreactivity
QVQLVESGGGLVQAGGSLRLSCAASGRIFPSYAMGWYRQAPGKERELDATISSGGRTYYADSVKGRFTISRDNAKNTVYLQMNILKPEYTAVYYCNADRTQDRNPYTYATFDYWGQGTQVTVSS = low polyreactivity
QVQLVESGGGLVQAGGSLRLSCAASGRTFQWYTMGWYRQAPGKERELVAAISWSGTSTYYADSVKGRFTISRDIAKNTVYLQMNILNPEDTAVYYCAAEVIGRYYRLDYWGQGPQVTVSS = low polyreactivity

Look up polyreactivity (PSR sort gate) for this sequence: QVQLVESGGGLVQAGGSLRLSCAASGRIFYYYAMGWYRQAPGKERELVATISSSGGSTYYADSVRGRFTISRDNAKNTVYLQMNSLKPEDTAVYYCAARVPLWSRGRTTWPKSQYEYWGQGTQVTVSS
high polyreactivity

----------
Experiment: yeast display, Sf9 membrane polyspecificity reagent, FACS + sequencing; frameworks hold sequencing errors
endpoint: polyreactivity (PSR sort gate)

QVQLVESGVGLVQAGGSLRLSCAASGITLYNYAMGWYRHAPGKERELVAAISLSGGRTYYADSVKGRFTISRDNAKNTVYLQMNSLKPEDTAVYYCAADWLNSDPYNYWGQGTQVTVSS = low polyreactivity
QVQLVESGGGLVQAGGSLRLSCAASGTFWWYAMGWYRQAPGKERELVASINRGGSTYYADSVKGRFTISRDNANNTVYLQMNSLKPEDTAVYYCNAGWIGRLTPYRRATYNYWGQGTQVTVSS = high polyreactivity
QVQLVESGGGLVQAGGSLRLSCAASGSIFSVYAMGWYRQAPGKERELVASITRSGGRTYYADSVKGRFTISRDNPKNTVYLQMNSLKPEDTAVYYCAADRLGSISGYDYWGQGTQVTVSS = high polyreactivity
QVQLVESGGGLVQAGGSLRLSCAASVSTFAVYAMGWYRQAPGKERELVAAISSSGDRTFYADSVKGRFTISRDNAKNTVYLQMNSLKPEDTAVYYCNVPYKYRRAYDGGYDYWGQGTQVTVSS = high polyreactivity
QVQLVESGGGLGQAGGSLRLSCAASGFNFYGYAMGWYRQAPGKERELVAAISSGGGRTYYADSVKGLFTISRDNAKNTVYLQMNSLKPEDTAVYYCAAKVYFYTGGGGEDYWGQGTKVTVSS = low polyreactivity
QVQLVESGGGLVQAGGSLRLSCAASGFTFRYNAMGWYRQAPGKEREVVAAITSGGNTNYADSVKGRFTISRDNAKNTFYLQMNSLKPEDTAVYYCNTAWRDYVARLGGVGYDYWGQGTQVTVSS = high polyreactivity
QVQLVESGGGLVQAGGSLRLSCAASGSTFRTNVMGWYRQAPGKEREVVAAITKRGSITYYADSVKGRFTISRDNAKNTVYFQMNTLKPEDTAVYYCAARKVAVRGYAYWGQGTQVTVSS = high polyreactivity
KVQLVESGLGLVQAGGSLRISCAASGSIFTQYTMGWYRQAHGKERELVASISDSGGSTYYADSVKGRFTISRDNAKNTVYLQMNSLKPEDTSVYYCASRHDRPRESNPYDYWGQGTQVTVSS = low polyreactivity

Look up polyreactivity (PSR sort gate) for this sequence: QVQLVESGGGLVQAGGSLRLSCAASGSIFPFYAMGWYRHAPGKERELVASISSGGSTNYADSVKGRFTISRDNAKNTVYLQMNSLKPEDTAVYYCNAVVPYRWDTWFQVVYPESYDYWGQGTQVTVSS
low polyreactivity

Look up polyreactivity (PSR sort gate) for this sequence: QVQLVETGGGLVQAGGSLRLSCAASGRTFAYYVMGWYRQAPGKERELVAAISSDGSTYYADSVKGRFTISRDNAKNTVNLQMNSLKPEDTAVYYCKVDVLLVHDYVFYSWMDYWGQGTQVTVSS
high polyreactivity

Look up polyreactivity (PSR sort gate) for this sequence: QVQLVDSGGGLVQAGGSLRLSCAASGGTISSYAMGWYRQAPGKERELVADITRRGGSTYYADSVKGRFTISRDNAKNTVYLQMNSLKPEDTAVYYCAAEWFRQGHRGLDYWGQGTQVTVSS
high polyreactivity

----------
Test: yeast display, Sf9 membrane polyspecificity reagent, FACS + sequencing; frameworks hold sequencing errors
endpoint: polyreactivity (PSR sort gate)

QVQLVESGGGLVQAGGSLRLSCAASGSTFTRYAMGWYRQAPGTERECVAGITSIGGRTYYADSVKGRFTISRDNAKNTVYLQMNSLKPEDTAVYYCAKRWGRYYYPYDYWGQGTQVTVSS = high polyreactivity
QVQLVESGGGLVQAGGSLRLSCAASGFIFDYYAMGWYRQAPGKERELVAAISRGGSTYYADSVKGRFTISRDNAKNTVYLQMKSLKPEDTAVYYCKAMSYHFWEFDYWGQGTQVTVSS = high polyreactivity
QVQLVESGGGLVQAGGSLRLSCAASGSTFRSNAMGWYRQAPGKESELVAAITRRGSTYYADSVKGRFTISRDNAKNTVYLQMNSVKPEDTAVYYCAARVPGYASGASGYSSYRYEYWGQGTQVTVSS = high polyreactivity

----------
Experiment: yeast display, Sf9 membrane polyspecificity reagent, FACS + sequencing; frameworks hold sequencing errors
endpoint: polyreactivity (PSR sort gate)

Use these answered entries as a reference point.
QVQLVESGVGLVQAGGTLRLSCAASGRIFTINAMGWYRQAPGKEREFVAAISGSGGTTYYADSVKGRLTISRDNAKNTVYLQMNSLKPEDTAVYYCAVSQSWYWYYASDYWGQGTQVTVSS = low polyreactivity
QVQLVESGGGLVQAGGSLRLSCAASGRTFKTYAMGWYRQAPGKERELVAAISRDGRTYYADSVKGRFTISRDNAKNTVYLQMNSLKPEDTAVYYCNKRSYRKGDYWGQGTQVTVSS = low polyreactivity
QVQLVESGGGLVQAGGSLRLSCAASGRTFGFYTMGCYRQAPGKERELVAAISWRGGSTYYADSVKGRFTISRDNAKNTVYLQMYSLKPEDTAVYYCAVRTNFGKMYYWGQGTQVTVSS = high polyreactivity
QVQLVESGGGLVQAGGSLRLSCAASGRIFWDYAMGWYRQAPGKERELVAGISYSGGSTSYADSVKGRFTISRDNAKNTVYLQMKSLKPEDTAVYYCAAGPSGTFFRDYDYWGQGTQVTVSS = low polyreactivity
QVQLVETGGGLVQAGGSLRLSCAASGYTLPANGKGWYRQAPGKDRELVAAISFIAGSTYYADSVNGRFTISRDNAKNTVYLQMNSLKPEDTAGYYCATQFPRSTIYDYWGQGTQVTVSS = low polyreactivity
QVQLVESGGGLVQAGGSLRLSCAASGFIFARNTMGWYRQAPGKERELVAAITKSGGSTYYADSVKGRFTISRDNAKNTVYLQMNSLKPEDTAVYYCAARTYTLRGVYFSGYNYWGQGTQVTVSS = low polyreactivity
QVQLVESGGGLVQAGGSLRLSCAASGFTFRRYAMGWYRQAPGKERELVAAINWNGDSTYYADSVKGRFTISRDNAKNTVYLQMNSVKPEDTAVYYCATSDYYYDYWGQGTQVTVSS = high polyreactivity
QVQLVESGGGLVQAGGSLRLSCAASGSTLSFNAMGWYRQAPGKERELVAGITYSGGSTYYADSVKGRFTISRDNAKNTVYLQMNILKPEDTAVYYCNKASGVYYGHLDYWGQGTQVTVSS = low polyreactivity
QVQLVESGGGLVQAGGSLRLSCAASGYTFRYYGMGWYRQAPGKERELVADINSNGVRTYYADSVKGRFTISRDNAKNTVYLQMNSLKPEDTAVYYCNKDWGRYRYDYWGQGTQVNVSS = high polyreactivity
QVQLQESGGGLVQAGGRLSLSRAASGFISGTYCMGCYRQTPGQDREFVAGIGNGAITYYADSAKGCFTISRDNAKNAVYLQMNSLKQEETAVYYCAADGQWYYAPFRGGDYENDYWGQGTQVTVSS = low polyreactivity

Read the next record carefully.
Look up polyreactivity (PSR sort gate) for this sequence: QVQLVESGGGLVQAGGSLRLSCAASGITFYVYAMGSYTQAPGKEREFVAAISTRDGTTYADSEKGRFTISRDNAKNPFYLEMNSLKPVDTAVDYCAAAYYYDGQQGDFDYWGQGTQVTVSS
low polyreactivity
